Data origin, for the record: paper PMC6593233

Molecular target: hKCa2.2 (Homo sapiens, UniProt Q9H2S1)
Assay: Manual whole-cell patch clamp, IKCa in HEK293 cells transiently transfected with hKCa2.2
Type: cell-based
Details: hKCa2.2, manual patch clamp, present study
measurement-kind: IC50

>>> observed_value("Cc1nccn1CC1CCc2c(c3ccccc3n2C)C1=O (stereo not shown)")
"> 1000 nM"
